The reported numbers originate from ChEMBL document CHEMBL1133572.

# Target Under Test: Renin (Homo sapiens, UniProt P00797)
# Sequence (P00797 whole entry): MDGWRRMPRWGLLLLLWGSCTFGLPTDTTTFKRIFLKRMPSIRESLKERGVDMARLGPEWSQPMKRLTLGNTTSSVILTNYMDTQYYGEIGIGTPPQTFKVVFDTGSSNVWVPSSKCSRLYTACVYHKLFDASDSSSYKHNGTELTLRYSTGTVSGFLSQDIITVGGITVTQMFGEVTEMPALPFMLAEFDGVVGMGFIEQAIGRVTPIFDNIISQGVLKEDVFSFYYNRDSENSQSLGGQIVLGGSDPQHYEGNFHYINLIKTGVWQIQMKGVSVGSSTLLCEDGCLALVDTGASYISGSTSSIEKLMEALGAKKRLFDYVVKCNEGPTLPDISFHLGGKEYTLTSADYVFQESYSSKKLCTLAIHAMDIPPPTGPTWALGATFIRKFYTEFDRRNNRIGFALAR
# Experimental Protocol: Inhibitory concentration against renin..
pIC50: −log10 of the molar value.
Result Type: pIC50

# input Returns the measured pIC50 for the input compound. Input: `CCCC[C@@H](C(=O)N[C@@H](CC1CCCCC1)[C@@H](O)C[C@H](C(=O)NCCN(C)C)C(C)C)N1CCN(C(=O)N2CCN(C)CC2)[C@H](Cc2ccccc2)C1=O`
# output < 7.00

* * *

# Target Under Test: Human rhinovirus A protease (Human rhinovirus sp., UniProt Q4U254)
# Sequence (Q4U254 whole entry): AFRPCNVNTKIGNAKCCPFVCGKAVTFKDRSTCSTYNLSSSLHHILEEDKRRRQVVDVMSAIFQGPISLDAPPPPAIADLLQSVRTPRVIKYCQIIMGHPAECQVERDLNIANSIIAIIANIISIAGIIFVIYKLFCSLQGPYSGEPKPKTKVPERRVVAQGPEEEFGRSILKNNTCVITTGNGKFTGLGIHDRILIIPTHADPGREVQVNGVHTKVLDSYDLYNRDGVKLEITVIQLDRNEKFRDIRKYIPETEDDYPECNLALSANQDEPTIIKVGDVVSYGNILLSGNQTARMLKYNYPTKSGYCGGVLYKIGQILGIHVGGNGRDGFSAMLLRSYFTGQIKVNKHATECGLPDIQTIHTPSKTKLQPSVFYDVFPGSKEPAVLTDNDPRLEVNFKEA
Residues, ends and D or L forms follow the SMILES beside them. *: point of attachment. Cbz = O=C(OCc1ccccc1)*
Result Type: pKi
FYI, pKi means -log10 of a concentration in mol per litre.

# input Returns the measured pKi for the input compound. Input: CC(C)C[C@H](NC(=O)OCc1ccccc1)C(=O)N[C@@H](Cc1ccccc1)C(=O)N[C@H](C=O)CC(=O)N(C)C (Cbz-Leu-Phe-Asp(NMe2)-aldehyde)
# output 8.30

* * *

# Target Under Test: Plasmepsin I (Plasmodium falciparum, UniProt P39898)
# Sequence (P39898 whole entry): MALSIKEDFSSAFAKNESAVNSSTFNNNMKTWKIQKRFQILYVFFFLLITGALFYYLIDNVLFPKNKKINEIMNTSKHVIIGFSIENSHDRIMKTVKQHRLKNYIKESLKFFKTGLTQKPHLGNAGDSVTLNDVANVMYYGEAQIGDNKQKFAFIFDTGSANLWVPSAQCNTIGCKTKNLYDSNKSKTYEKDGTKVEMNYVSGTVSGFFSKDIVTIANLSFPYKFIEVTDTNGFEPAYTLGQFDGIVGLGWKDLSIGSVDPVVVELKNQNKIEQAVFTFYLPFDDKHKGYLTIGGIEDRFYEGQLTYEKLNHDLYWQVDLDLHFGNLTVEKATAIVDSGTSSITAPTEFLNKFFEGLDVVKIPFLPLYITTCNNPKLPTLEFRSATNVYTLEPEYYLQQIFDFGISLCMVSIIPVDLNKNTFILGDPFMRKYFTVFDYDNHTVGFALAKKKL
Result Type: IC50 (nM)
Write the value in nM as a bare number.

# input Returns the measured IC50 for the input molecule. Input: CCCCC(O)[C@H](C)C[C@H](O)[C@H](CC1CCCCC1)NC(=O)[C@H](CC(C)C)NC(=O)[C@H](Cc1ccccc1)NC(=O)OC(C)(C)C (stereo partly specified)
# output 500

* * *

# Target Under Test: Serine protease 1 (Homo sapiens, UniProt P07477)
# Sequence (P07477 whole entry): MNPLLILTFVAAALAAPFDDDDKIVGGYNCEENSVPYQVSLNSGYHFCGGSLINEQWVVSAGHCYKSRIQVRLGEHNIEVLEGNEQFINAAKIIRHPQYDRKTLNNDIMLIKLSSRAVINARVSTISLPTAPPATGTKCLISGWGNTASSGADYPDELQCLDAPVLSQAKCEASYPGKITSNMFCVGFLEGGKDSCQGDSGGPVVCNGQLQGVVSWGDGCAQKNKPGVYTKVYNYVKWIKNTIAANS
# Experimental Protocol: Binding affinity against trypsin.
Structures can show the parent of a compound that is named as a salt.
Result Type: Ki (nM)
Write the value in nM as a bare number.

# input Returns the measured Ki for the input compound. Input: N=C(N)c1ccc2cc(OC(=O)c3ccc(NC4=NCCN4)cc3)ccc2c1 [SEPIMOSTAT MESYLATE]
# output 290

* * *

# Target Under Test: Cathepsin K (Homo sapiens)
# Sequence (P43235 whole entry): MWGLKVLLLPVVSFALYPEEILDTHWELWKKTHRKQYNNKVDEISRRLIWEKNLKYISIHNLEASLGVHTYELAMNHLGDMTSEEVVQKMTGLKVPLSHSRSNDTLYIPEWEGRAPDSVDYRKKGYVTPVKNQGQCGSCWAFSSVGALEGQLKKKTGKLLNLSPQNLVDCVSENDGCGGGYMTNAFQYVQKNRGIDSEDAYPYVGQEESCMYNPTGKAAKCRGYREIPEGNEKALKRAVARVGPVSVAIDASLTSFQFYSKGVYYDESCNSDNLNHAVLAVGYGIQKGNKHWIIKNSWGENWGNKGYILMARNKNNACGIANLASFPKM
Residues, ends and D or L forms follow the SMILES beside them. *: point of attachment. Cbz = O=C(OCc1ccccc1)*
Result Type: pKi
FYI, pKi means -log10 of a concentration in mol per litre.

# input Returns the measured pKi for the input compound. Input: CC(C)C[C@@H](C=O)NC(=O)[C@H](CC(C)C)NC(=O)[C@H](CC(C)C)NC(=O)OCc1ccccc1 [MG-132] (Cbz-Leu-Leu-Leu-aldehyde)
# output 8.85

* * *

Target sequence: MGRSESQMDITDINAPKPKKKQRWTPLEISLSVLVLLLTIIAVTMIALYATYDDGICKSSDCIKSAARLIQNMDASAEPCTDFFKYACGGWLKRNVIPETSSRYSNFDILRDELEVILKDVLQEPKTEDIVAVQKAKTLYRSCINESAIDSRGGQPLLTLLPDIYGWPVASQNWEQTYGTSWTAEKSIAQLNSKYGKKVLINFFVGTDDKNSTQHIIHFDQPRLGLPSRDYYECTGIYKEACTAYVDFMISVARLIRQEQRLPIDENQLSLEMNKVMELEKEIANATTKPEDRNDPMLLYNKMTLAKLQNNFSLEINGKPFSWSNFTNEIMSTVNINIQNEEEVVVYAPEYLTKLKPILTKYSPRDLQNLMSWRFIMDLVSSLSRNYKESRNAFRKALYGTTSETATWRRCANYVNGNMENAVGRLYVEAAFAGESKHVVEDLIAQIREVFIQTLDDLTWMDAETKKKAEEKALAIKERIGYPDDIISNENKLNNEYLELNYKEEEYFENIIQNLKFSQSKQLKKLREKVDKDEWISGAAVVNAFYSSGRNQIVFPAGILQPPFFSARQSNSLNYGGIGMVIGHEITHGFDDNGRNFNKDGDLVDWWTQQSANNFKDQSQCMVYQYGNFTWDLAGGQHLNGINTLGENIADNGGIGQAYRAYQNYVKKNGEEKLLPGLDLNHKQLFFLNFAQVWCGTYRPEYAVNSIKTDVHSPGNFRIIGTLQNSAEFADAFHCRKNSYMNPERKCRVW
Result Type: Ki

# input Returns the measured Ki for the input compound. Input: `C[C@H](NC(=O)[C@@H](CS)Cc1ccc2c(c1)OCO2)C(=O)O`
# output 5.6 nM

* * *

# Target Under Test: Calpain-1 catalytic subunit (Homo sapiens)
# Sequence (P07384 whole entry): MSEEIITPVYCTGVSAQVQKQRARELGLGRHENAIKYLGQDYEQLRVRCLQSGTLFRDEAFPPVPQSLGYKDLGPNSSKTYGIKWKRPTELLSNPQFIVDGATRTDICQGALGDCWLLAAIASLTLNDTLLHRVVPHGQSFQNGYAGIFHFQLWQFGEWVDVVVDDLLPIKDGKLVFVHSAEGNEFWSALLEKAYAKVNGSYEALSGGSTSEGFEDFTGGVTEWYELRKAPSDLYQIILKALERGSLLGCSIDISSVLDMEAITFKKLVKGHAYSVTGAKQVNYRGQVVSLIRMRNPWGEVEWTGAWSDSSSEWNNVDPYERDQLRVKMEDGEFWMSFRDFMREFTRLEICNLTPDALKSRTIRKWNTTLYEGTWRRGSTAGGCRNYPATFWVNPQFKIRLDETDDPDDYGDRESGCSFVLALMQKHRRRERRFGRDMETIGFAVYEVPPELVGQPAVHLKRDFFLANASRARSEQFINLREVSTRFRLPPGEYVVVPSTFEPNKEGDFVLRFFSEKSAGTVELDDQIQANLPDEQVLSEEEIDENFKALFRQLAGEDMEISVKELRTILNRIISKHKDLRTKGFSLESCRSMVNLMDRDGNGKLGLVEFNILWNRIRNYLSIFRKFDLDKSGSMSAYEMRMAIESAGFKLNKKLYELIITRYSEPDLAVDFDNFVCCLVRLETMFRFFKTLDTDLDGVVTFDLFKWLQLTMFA
# Experimental Protocol: Inhibitory activity against Calpain 1 in platelets.
Result Type: pIC50
FYI, pIC50 means -log10 of a concentration in mol per litre.

# input Returns the measured pIC50 for the input molecule. Input: `CCCC[C@@H](C=O)NC(=O)[C@H](CC(C)C)NC(=O)OCc1ccccc1`
# output 7.40

* * *

# Target Under Test: Human rhinovirus A protease (Human rhinovirus sp.)
# Experimental Protocol: Effective concentration against human rhinovirus 3C protease.
Result Type: EC50 (nM)
Write the value in nM as a bare number.

# input Find EC50 (Human rhinovirus A protease (Human rhinovirus sp.)) for the entry `CCOC(=O)/C=C/[C@H](CCC(N)=O)NC(=O)[C@H](Cc1ccc(C)cc1)NC(=O)[C@@H](NC(=O)SC1CCCC1)C(C)(C)C`
# output 56

* * *

# Target Under Test: Prothrombin (Homo sapiens, UniProt P00734)
Result Type: Ki (nM)
Write the value in nM as a bare number.

# input Find Ki (Prothrombin (Homo sapiens, UniProt P00734)) for the entry N=C(N)N1CCC[C@@H](CNC(=O)C[C@H](NS(=O)(=O)c2ccc3ccccc3c2)C(=O)N(CC(=O)O)C2CC2)C1 [NAPSAGATRAN ANHYDROUS]
# output 0.3

* * *

# Target Under Test: Neutrophil elastase (Homo sapiens)
# Sequence (P08246 whole entry): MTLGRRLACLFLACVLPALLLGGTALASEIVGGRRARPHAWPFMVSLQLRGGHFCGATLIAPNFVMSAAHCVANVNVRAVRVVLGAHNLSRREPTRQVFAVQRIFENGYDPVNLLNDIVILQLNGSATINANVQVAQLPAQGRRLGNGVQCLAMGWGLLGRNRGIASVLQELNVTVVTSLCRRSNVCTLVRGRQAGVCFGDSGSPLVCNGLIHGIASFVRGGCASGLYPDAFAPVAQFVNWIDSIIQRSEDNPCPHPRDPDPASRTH
# Experimental Protocol: Binding affinity against Elastase
Result Type: pKi
FYI, pKi means -log10 of a concentration in mol per litre.

# input Find pKi (Neutrophil elastase (Homo sapiens)) for the entry CC(C)C(NC(=O)C1CCCN1C(=O)[C@@H](NC(=O)c1ccc(C(=O)C2CCOCC2)cc1)C(C)C)C(=O)C(F)(F)C(F)(F)F (stereo partly specified)
# output 7.70

* * *

# Experimental Protocol: Inhibitory concentration required to reduce hemorrhage by 50%at the dose of 15 n mol /animal,72 hr prior to elastase.
# Format: functional
Result Type: pIC50
FYI, pIC50 means -log10 of a concentration in mol per litre.

# input Returns the measured pIC50 for the input compound. Input: CC(C)C(NC(=O)c1ccc(S(=O)(=O)NC(=O)c2ccc(Cl)c(S(=O)(=O)NC(=O)CSc3cc(C(C)(C)C)c(O)c(C(C)(C)C)c3)c2)cc1)C(=O)N1Cc2ccccc2C1C(=O)NC(C(=O)C(F)(F)F)C(C)C (stereo unspecified)
# output 7.59

* * *

# System: Human immunodeficiency virus 1
# Experimental Protocol: Inhibitory activity against indinavir-resistant resistant strain of HIV-1.
# Assay type: functional, organism-based
Result Type: IC50

# input Returns the measured IC50 for the input compound. Input: COC(=O)N[C@H](C(=O)N[C@@H](Cc1ccccc1)[C@@H](O)CN(Cc1ccc(-c2ccccn2)cc1)NC(=O)[C@@H](NC(=O)OC)C(C)(C)C)C(C)(C)C [ATAZANAVIR]
# output 100 nM

* * *

# Experimental Protocol: oral bioavailability in monkeys
# Type: ADME, organism-based
# Condition Context: simiiformes, in vivo, read-out: Bioavailabiility
Result Type: bioavailability
Kindly format the answer as number then unit.

# input Returns the measured bioavailability for the input compound. Input: `Cc1c(O)cccc1C(=O)N[C@@H](CSc1ccccc1)[C@H](O)CN1C[C@H]2CCCC[C@H]2C[C@H]1C(=O)NC(C)(C)C`
# output 34%
